inhibition reference
SYSTEM_NAME: Prostaglandin G/H synthase 2 (Homo sapiens)
Sequence (whole entry): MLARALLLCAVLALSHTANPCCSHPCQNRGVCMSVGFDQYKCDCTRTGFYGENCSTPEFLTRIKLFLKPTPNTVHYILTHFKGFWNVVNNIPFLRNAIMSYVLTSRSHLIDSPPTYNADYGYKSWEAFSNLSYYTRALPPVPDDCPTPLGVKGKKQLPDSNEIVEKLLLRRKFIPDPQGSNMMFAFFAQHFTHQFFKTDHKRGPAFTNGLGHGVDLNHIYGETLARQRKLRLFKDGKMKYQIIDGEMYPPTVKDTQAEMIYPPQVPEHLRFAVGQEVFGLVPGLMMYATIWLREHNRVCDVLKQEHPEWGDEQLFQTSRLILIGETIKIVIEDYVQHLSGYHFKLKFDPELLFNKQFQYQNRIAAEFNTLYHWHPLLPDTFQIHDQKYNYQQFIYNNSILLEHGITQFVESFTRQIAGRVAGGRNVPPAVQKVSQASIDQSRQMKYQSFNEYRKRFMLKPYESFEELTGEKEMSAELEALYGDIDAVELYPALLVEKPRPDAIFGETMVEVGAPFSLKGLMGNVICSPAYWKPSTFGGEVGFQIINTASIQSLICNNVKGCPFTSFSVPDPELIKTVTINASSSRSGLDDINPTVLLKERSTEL
TEST_CONTEXT: at 10 µM
Description: In vitro percent Inhibition of recombinant human prostaglandin G/H synthase 2 (COX-2) at a concentration of 10 uM
PROPERTY: inhibition (%)

> print(dat)
                                smiles.text  observed
1  CS(=O)(=O)c1ccc(-c2cc3c(cc2CN2CCCCC2)OCO3)cc1        30
2  NS(=O)(=O)c1ccc(-c2cc3c(cc2Cc2ccccc2)OCO3)cc1        90
3  CS(=O)(=O)c1ccc(-c2cc3c(cc2C(=O)N2CCCC2)OCO3)cc1        20
4  CS(=O)(=O)c1ccc(-c2cc3c(cc2Cc2ccccc2)OCO3)cc1        85
5  CS(=O)(=O)c1ccc(-c2cc3c(cc2C=C2CCCCCC2)OCO3)cc1       100
6  CS(=O)(=O)c1ccc(-c2cc3c(cc2C=C2CCCCC2)OCO3)cc1        90

* * *

inhibition reference
SYSTEM_NAME: Prostaglandin G/H synthase 2 (Homo sapiens) (UniProt P35354)
TEST_CONTEXT: at 1 µM
Description: In vitro percent Inhibition of recombinant human prostaglandin G/H synthase 2 (COX-2) at a concentration of 1 uM
PROPERTY: inhibition (%)

> print(dat)
                                    compound                               system.name    property  observed
 1  CS(=O)(=O)c1ccc(-c2cc3c(cc2C(=O)N2CCCC2)OCO3)cc1  Prostaglandin G/H synthase 2 (Homo sapiens) (UniProt P35354)  inhibition         0
 2  CS(=O)(=O)c1ccc(-c2cc3c(cc2C(=O)c2ccccc2)OCO3)cc1  Prostaglandin G/H synthase 2 (Homo sapiens) (UniProt P35354)  inhibition        10
 3  Cc1ccc(Cc2cc3c(cc2-c2ccc(S(C)(=O)=O)cc2)OCO3)cc1  Prostaglandin G/H synthase 2 (Homo sapiens) (UniProt P35354)  inhibition        50
 4  CS(=O)(=O)c1ccc(-c2cc3c(cc2CC2CCCC2)OCO3)cc1  Prostaglandin G/H synthase 2 (Homo sapiens) (UniProt P35354)  inhibition        40
 5  CS(=O)(=O)c1ccc(-c2cc3c(cc2CC2CCCCC2)OCO3)cc1  Prostaglandin G/H synthase 2 (Homo sapiens) (UniProt P35354)  inhibition       100
 6  NS(=O)(=O)c1ccc(-c2cc3c(cc2Cc2ccccc2)OCO3)cc1  Prostaglandin G/H synthase 2 (Homo sapiens) (UniProt P35354)  inhibition        85
 7  CS(=O)(=O)c1ccc(-c2cc3c(cc2C=C2CCCCC2)OCO3)cc1  Prostaglandin G/H synthase 2 (Homo sapiens) (UniProt P35354)  inhibition        90
 8  CS(=O)(=O)c1ccc(-c2cc3c(cc2CN2CCCCC2)OCO3)cc1  Prostaglandin G/H synthase 2 (Homo sapiens) (UniProt P35354)  inhibition         0
 9  CS(=O)(=O)c1ccc(-c2cc3c(cc2C(=O)N2CCOCC2)OCO3)cc1  Prostaglandin G/H synthase 2 (Homo sapiens) (UniProt P35354)  inhibition        35
10  CS(=O)(=O)c1ccc(-c2cc3c(cc2CC2CCCCCC2)OCO3)cc1  Prostaglandin G/H synthase 2 (Homo sapiens) (UniProt P35354)  inhibition        90
11  Cc1cccc(C(=O)c2cc3c(cc2-c2ccc(S(C)(=O)=O)cc2)OCO3)c1  Prostaglandin G/H synthase 2 (Homo sapiens) (UniProt P35354)  inhibition        10
12  CS(=O)(=O)c1ccc(-c2cc3c(cc2CN2CCCC(CO)C2)OCO3)cc1 (stereo unspecified)  Prostaglandin G/H synthase 2 (Homo sapiens) (UniProt P35354)  inhibition        20
13  CS(=O)(=O)c1ccc(-c2cc3c(cc2CCCc2ccccc2)OCO3)cc1  Prostaglandin G/H synthase 2 (Homo sapiens) (UniProt P35354)  inhibition        15
14  CN1CCN(C(=O)c2cc3c(cc2-c2ccc(S(C)(=O)=O)cc2)OCO3)CC1  Prostaglandin G/H synthase 2 (Homo sapiens) (UniProt P35354)  inhibition        20
15  CS(=O)(=O)c1ccc(-c2cc3c(cc2C(=O)N2CCCCC2)OCO3)cc1  Prostaglandin G/H synthase 2 (Homo sapiens) (UniProt P35354)  inhibition        20
16  CS(=O)(=O)c1ccc(-c2cc3c(cc2Cc2ccc(F)cc2)OCO3)cc1  Prostaglandin G/H synthase 2 (Homo sapiens) (UniProt P35354)  inhibition        10
17  CS(=O)(=O)c1ccc(-c2cc3c(cc2CN2CCCCC2=O)OCO3)cc1  Prostaglandin G/H synthase 2 (Homo sapiens) (UniProt P35354)  inhibition        20
18  CS(=O)(=O)c1ccc(-c2cc3c(cc2CN2CCCCC2CO)OCO3)cc1 (stereo unspecified)  Prostaglandin G/H synthase 2 (Homo sapiens) (UniProt P35354)  inhibition        25
19  CS(=O)(=O)c1ccc(-c2cc3c(cc2CN2CCC(O)CC2)OCO3)cc1  Prostaglandin G/H synthase 2 (Homo sapiens) (UniProt P35354)  inhibition        10
20  CS(=O)(=O)c1ccc(-c2cc3c(cc2C=C2CCCCCC2)OCO3)cc1  Prostaglandin G/H synthase 2 (Homo sapiens) (UniProt P35354)  inhibition       100
21  Cc1cccnc1C(=O)c1cc2c(cc1-c1ccc(S(C)(=O)=O)cc1)OCO2  Prostaglandin G/H synthase 2 (Homo sapiens) (UniProt P35354)  inhibition         0

* * *

inhibition reference
SYSTEM_NAME: Prostaglandin G/H synthase 1 (Ovis aries) (UniProt P05979)
Sequence (whole entry): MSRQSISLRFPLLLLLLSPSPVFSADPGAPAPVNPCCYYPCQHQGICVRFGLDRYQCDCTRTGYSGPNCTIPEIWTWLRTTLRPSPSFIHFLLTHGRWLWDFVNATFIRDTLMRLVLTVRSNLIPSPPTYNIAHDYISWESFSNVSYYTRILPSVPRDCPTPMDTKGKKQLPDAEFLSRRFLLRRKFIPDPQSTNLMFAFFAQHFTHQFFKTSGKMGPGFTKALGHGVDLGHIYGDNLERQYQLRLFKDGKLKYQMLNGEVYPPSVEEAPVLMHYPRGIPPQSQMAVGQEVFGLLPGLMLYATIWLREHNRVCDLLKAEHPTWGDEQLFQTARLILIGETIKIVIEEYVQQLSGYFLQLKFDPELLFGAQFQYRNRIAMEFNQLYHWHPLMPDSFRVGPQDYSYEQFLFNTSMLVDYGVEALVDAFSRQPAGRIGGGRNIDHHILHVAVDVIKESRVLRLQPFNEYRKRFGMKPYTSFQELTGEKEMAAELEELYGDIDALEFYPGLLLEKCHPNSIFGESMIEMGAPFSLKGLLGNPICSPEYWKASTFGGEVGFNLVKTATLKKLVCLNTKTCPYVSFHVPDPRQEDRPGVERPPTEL
PROCEDURE_SUMMARY: Compound was tested for in vitro inhibition of recombinant ovine Prostaglandin G/H synthase 1 (COX-1) at a concentration of 100 uM
PROPERTY: inhibition (%)

> print(dat)
                                smiles.text                               system.name  observed
1  CS(=O)(=O)c1ccc(-c2cc3c(cc2Cc2cc(F)cc(F)c2)OCO3)cc1  Prostaglandin G/H synthase 1 (Ovis aries) (UniProt P05979)        15
2  CS(=O)(=O)c1ccc(-c2cc3c(cc2CC2CCCCCC2)OCO3)cc1  Prostaglandin G/H synthase 1 (Ovis aries) (UniProt P05979)        10
3  CS(=O)(=O)c1ccc(-c2cc3c(cc2CC2CCCC2)OCO3)cc1  Prostaglandin G/H synthase 1 (Ovis aries) (UniProt P05979)        20
4  Cc1ccc(Cc2cc3c(cc2-c2ccc(S(C)(=O)=O)cc2)OCO3)cc1  Prostaglandin G/H synthase 1 (Ovis aries) (UniProt P05979)        25
5  CS(=O)(=O)c1ccc(-c2cc3c(cc2C=C2CCCCCC2)OCO3)cc1  Prostaglandin G/H synthase 1 (Ovis aries) (UniProt P05979)         0
6  CS(=O)(=O)c1ccc(-c2cc3c(cc2C=C2CCCC2)OCO3)cc1  Prostaglandin G/H synthase 1 (Ovis aries) (UniProt P05979)        80
7  CS(=O)(=O)c1ccc(-c2cc3c(cc2C(=O)c2cnccc2Br)OCO3)cc1  Prostaglandin G/H synthase 1 (Ovis aries) (UniProt P05979)        40
8  Cc1cccc(C(=O)c2cc3c(cc2-c2ccc(S(C)(=O)=O)cc2)OCO3)c1  Prostaglandin G/H synthase 1 (Ovis aries) (UniProt P05979)         0
9  CS(=O)(=O)c1ccc(-c2cc3c(cc2Cc2ccc(F)cc2)OCO3)cc1  Prostaglandin G/H synthase 1 (Ovis aries) (UniProt P05979)        10

meta.source: ChEMBL document CHEMBL1145927
